Some compounds, each annotated with its measured log10 Ki.
Target: Ox receptor
Assay: Ox receptor binding, [3H]-rilmenidine displacement in rat brain homogenates
Details: read-out: Receptor Affinities (nM) Ox; rat brain homogenates, Table 4
Lab note - Ki converted to log10 from values in nM.

Before answering, review these 7 worked examples.
Task: log10 Ki for C[C@@H](NC1=NCCO1)C1CCCCC1 [(R)-(−)-O504] ?
Output: 1.51

Task: Given the compound CCC1CCCC(CC)C1NC1=NCCO1 (stereo not drawn) [Compound O501] , what is its reported log10 Ki?
Output: 1.26

Task: Bench note: what log10 Ki did C1COC(NC(C2CC2)C2CC2)=N1 [Rilmenidine] show?
Output: 1.18

Task: Which log10 Ki reading was recorded for the compound C[C@H](NC1=NCCO1)C1CCCCC1 [(S)-(+)-O504] ?
Output: 1.30

Task: So what does the record say about log10 Ki for COC1(C2=NCCN2)COc2ccccc2O1 (stereo not drawn) [Methoxyidazoxan] ?
Output: 5.50

Task: Return reported log10 Ki; argument: C1CCC(C(NC2=NCCO2)C2CCCCC2)CC1 [Compound O503]
Output: 2.07

Task: Please report the recorded log10 Ki for c1ccc(C(NC2=NCCO2)c2ccccc2)cc1 [Compound O502] .
Output: 2.20

Now consider the entry below.
Task: Item under review: c1ccc2c(c1)OCC(C1=NCCN1)O2 (stereo not drawn) [Idazoxan, 2-(1,4-benzodioxan)-imidazoline] . Reported log10 Ki?
Output: 4.79
